Origin of the recorded values: patent US20090312288A1

target: Aurora B/INCENP (Homo sapiens, UniProt Q96GD4); experiment: Determination of inhibition of AIK: Aurora B/INCENP direct fluorescence polarization (IMAP) assay; conditions: 10 uM ATP, 0.8 nM Aurora B/INCENP; values given as bins; read-out: IC50 of Exemplified Compounds Against AIK B
Sequence (Q96GD4 whole entry): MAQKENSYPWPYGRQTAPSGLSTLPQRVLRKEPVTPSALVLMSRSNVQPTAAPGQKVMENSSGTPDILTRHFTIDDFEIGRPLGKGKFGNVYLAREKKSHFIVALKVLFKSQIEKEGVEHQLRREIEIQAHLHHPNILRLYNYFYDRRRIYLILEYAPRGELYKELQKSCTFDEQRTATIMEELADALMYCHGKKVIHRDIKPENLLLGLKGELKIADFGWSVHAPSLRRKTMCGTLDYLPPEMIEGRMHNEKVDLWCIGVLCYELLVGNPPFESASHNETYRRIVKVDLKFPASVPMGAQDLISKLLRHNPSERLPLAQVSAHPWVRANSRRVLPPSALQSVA
Sequence (Q9NQS7 whole entry partner): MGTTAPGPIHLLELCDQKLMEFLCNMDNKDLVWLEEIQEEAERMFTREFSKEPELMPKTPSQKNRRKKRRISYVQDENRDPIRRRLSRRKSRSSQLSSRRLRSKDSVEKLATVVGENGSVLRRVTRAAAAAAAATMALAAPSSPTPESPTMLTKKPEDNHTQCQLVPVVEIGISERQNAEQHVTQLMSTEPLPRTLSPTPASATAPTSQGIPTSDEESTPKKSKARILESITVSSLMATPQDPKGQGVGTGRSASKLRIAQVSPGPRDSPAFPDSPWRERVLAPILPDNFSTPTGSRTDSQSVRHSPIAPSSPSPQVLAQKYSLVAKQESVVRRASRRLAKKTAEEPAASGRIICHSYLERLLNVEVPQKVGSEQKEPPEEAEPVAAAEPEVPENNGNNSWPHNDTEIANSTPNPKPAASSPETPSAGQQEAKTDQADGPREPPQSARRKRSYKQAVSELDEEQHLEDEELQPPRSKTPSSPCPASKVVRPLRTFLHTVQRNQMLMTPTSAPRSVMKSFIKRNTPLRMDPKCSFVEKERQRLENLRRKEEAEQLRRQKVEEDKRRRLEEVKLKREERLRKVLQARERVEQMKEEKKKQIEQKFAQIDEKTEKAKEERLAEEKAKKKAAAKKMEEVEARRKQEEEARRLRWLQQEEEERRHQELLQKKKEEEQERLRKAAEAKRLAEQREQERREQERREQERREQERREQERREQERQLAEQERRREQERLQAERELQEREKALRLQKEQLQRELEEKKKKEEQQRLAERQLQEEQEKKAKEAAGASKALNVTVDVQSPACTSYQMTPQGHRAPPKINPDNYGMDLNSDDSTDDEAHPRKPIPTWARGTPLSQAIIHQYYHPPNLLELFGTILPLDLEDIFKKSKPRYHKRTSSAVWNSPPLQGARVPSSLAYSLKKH
pIC50: −log10 of the molar value.
Measured attribute: pIC50

[[record]]
molecule = "CCSc1ncc(-c2cccc(NC(=O)C3CC3)c2)c2c1[nH]c1ncc(C)cc12 [Compound 79]"
result = "< 7.89"


Lab note: CCS(=O)(=O)c1cccc(-c2ccc(OC[C@H](O)CO)c3[nH]c4ncc(C)cc4c23)c1 [Compound 231] gave pIC50 of > 8.40

Lab note: Cc1cnc2[nH]c3c(OC[C@@H]4CNCCO4)ccc(-c4cccc(S(=O)(=O)C5CC5)c4)c3c2c1 [Compound 358] gave pIC50 of > 8.40

Lab note: CCS(=O)(=O)c1cccc(-c2cnc(NCC3CCN(C)CC3)c3[nH]c4ncc(C)cc4c23)c1 [Compound 46] gave pIC50 of 7.89 to 8.07

Lab note: CCS(=O)(=O)c1cccc(-c2cnc(SC)c3[nH]c4ncc(C)cc4c23)c1 [Compound 75] gave pIC50 of > 8.40

Lab note: CCS(=O)(=O)c1cccc(-c2cnc(OCc3cncs3)c3[nH]c4ncc(C)cc4c23)c1 [Compound 60] gave pIC50 of 8.26 to 8.40

Lab note: Cc1cccc(-c2cccc3[nH]c4ncccc4c23)c1 [Compound 11, 5-m-tolyl-9H-pyrido[2,3-b]indole] gave pIC50 of < 7.89

Lab note: CCS(=O)(=O)c1cccc(-c2cc(C(=O)NC[C@H](C)O)c(C)c3[nH]c4ncc(C)cc4c23)c1 [Compound 100] gave pIC50 of 8.26 to 8.40

Lab note: CCS(=O)(=O)c1cccc(-c2cc(C(=O)NCCN(C)C)cc3[nH]c4ncc(C)cc4c23)c1 [Compound 142] gave pIC50 of 8.07 to 8.25

Lab note: Cc1cnc2[nH]c3c(OCCCN4CCC(O)CC4)ccc(-c4cccc(S(=O)(=O)C5CC5)c4)c3c2c1 [Compound 300] gave pIC50 of > 8.40

Lab note: CCS(=O)(=O)c1cccc(-c2c(Cl)c(C(=O)OC)cc3[nH]c4ncc(C)cc4c23)c1 [Compound 149] gave pIC50 of < 7.89

Lab note: CCS(=O)(=O)c1cccc(-c2cc(N(C)C(=O)CCN(C)C)c(OC)c3[nH]c4ncc(C)cc4c23)c1 [Compound 254] gave pIC50 of < 7.89

Lab note: CN1CCC(COc2ccc(-c3cccc(C(=O)NC4CC4)c3)c3c2[nH]c2ncc(Cl)cc23)CC1 [Compound 285] gave pIC50 of 7.89 to 8.07

Lab note: Cc1cnc2[nH]c3c(OCC4CCN(CCOP(=O)(O)O)CC4)ccc(-c4cccc(S(=O)(=O)C5CC5)c4)c3c2c1 [Compound 346] gave pIC50 of > 8.40

Lab note: CCS(=O)(=O)c1cccc(-c2ccc(OCCCn3cccc3)c3[nH]c4ncc(C)cc4c23)c1 [Compound 421] gave pIC50 of < 7.89

Lab note: CCS(=O)(=O)c1cccc(-c2ccc(OC(F)F)c3[nH]c4ncc(C)cc4c23)c1 [Compound 172] gave pIC50 of 8.07 to 8.25

Lab note: CCN(CCO)CCCOc1ccc(-c2cccc(S(=O)(=O)C3CC3)c2)c2c1[nH]c1ncc(C)cc12 [Compound 270] gave pIC50 of 8.26 to 8.40

Lab note: CCS(=O)(=O)c1cccc(-c2cc(C(=O)O)cc3[nH]c4ncc(C)cc4c23)c1 [Compound 140] gave pIC50 of 8.26 to 8.40

Lab note: CCN(CCO)CCCOc1ccc(-c2cccc(C(=O)NC3CC3)c2)c2c1[nH]c1ncc(C)cc12 [Compound 273] gave pIC50 of 8.07 to 8.25
